Test system: LCMV
experimentalDetails: microbe, parasite or virus in culture
Assay type: cell-based, lymphocytic choriomeningitis virus (LCMV)
# label = TRUE if EC50 < 20 nM else FALSE

Example cases with answers are listed next.
> print(dat)
                                   molecule  grouplabel
1  O=C(O)c1cn2c(c(O)c1=O)C(=O)N(C(C1CC1)C1CC1)CN2C1c2ccccc2CSc2ccccc21 (centres unmarked) [III-028]        TRUE
2  COCCN1C[C@H](C(c2ccccc2)c2ccccc2)n2cc(C(=O)O)c(=O)c(O)c2C1=O       FALSE
3  O=C(O)c1cn2c(c(O)c1=O)C(=O)N(CC1CC1)CN2C1c2ccccc2CSc2ccccc21 (centres unmarked) [III-014]       FALSE
4  O=C(O)c1cn2c(c(O)c1=O)C(=O)N(C(C1CC1)C1CC1)CN2C1c2ccccc2CSc2ccccc21 (centres unmarked) [III-029]       FALSE
5  O=C(O)c1cn2c(c(O)c1=O)C(=O)N(CC1CC1)CN2C1c2ccccc2CSc2ccccc21 (centres unmarked) [III-013]        TRUE
6  CC(C)N1CN(C2c3ccccc3CSc3ccccc32)n2cc(C(=O)O)c(=O)c(O)c2C1=O (centres unmarked) [III-020]       FALSE
7  CC(C)N1CN(C2c3ccccc3CSc3ccccc32)n2cc(C(=O)O)c(=O)c(O)c2C1=O (centres unmarked) [III-021]        TRUE

Here's the next entry for you.
Could you please tell me whether EC50 recorded for CC(C)N1CN(C2c3ccccc3CSc3ccccc32)n2cc(C(=O)O)c(=O)c(O)c2C1=O (centres unmarked) [Compound I-019] is less than 20 nM?
TRUE
